Below, each of the compounds is paired with its reported IC50 value.
Molecular target: ABHD6 (Mus musculus)
Construct: Proteomes (mouse brain membrane fraction or cell lysates); from tissue; host or cells: mouse brain membrane fraction (or cell lysates, not specified)
Sequence (Q8R2Y0 1-336): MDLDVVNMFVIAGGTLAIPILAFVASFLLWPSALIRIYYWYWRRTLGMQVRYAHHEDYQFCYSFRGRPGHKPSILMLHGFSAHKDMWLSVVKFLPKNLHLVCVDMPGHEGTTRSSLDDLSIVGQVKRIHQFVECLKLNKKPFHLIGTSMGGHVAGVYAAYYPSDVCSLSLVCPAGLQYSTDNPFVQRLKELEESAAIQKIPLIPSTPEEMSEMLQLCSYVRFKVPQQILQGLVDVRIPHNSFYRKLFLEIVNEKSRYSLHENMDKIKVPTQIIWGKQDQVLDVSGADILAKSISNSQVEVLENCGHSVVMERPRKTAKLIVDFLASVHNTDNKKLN
Test: In vitro competitive activity-based protein profiling (gel-based, FP-Rh or HT-01 probe)
Assay type: biochemical
Conditions: mouse brain membrane fraction or cell lysates, 30 min preincubation at 37° C.; read-out: Mouse (IC50 value, nM) ABHD6

COMPOUND	RESULT
N#Cc1cnn(C(=O)N2CCN(Cc3ccc(OCc4ccccc4)cc3)CC2)c1 [Example 21]	< 100 nM
O=C(N1CCN(c2ccccc2Cl)CC1)n1cc(C(F)(F)F)cn1 [Example 227]	< 100 nM
Cc1cc(-c2ccccc2)ccc1CN1CCN(C(=O)n2cccn2)CC1 [Example 94]	> 1000 nM
O=C(N1CCN(Cc2ccc(Cl)cc2N2CCCC2)CC1)n1cc(Cl)cn1 [Example 50]	< 100 nM
O=C(N1CCN(Cc2cccc(Oc3ccccc3)c2)CC1)n1cc(Cl)cn1 [Example 216]	< 100 nM
CNC(=O)c1cnn(C(=O)N2CCN(Cc3cccc(Oc4ccccc4)c3)CC2)c1 [Example 287]	< 100 nM
O=C(N1CCN(Cc2ccc(C(F)(F)F)cc2N2CCCC2)CC1)n1cc(-c2ccccc2C(F)(F)F)cn1 [Example 115]	100 to 1000 nM
CCN(Cc1ccc(C)cc1)C(=O)n1cc(C#N)cn1 [Example 255]	> 1000 nM
COc1cccc(N2CCN(C(=O)n3cc(C(F)(F)F)cn3)CC2)c1 [Example 234]	< 100 nM
Cc1cnn(C(=O)N2CCN(Cc3c(N4CCCC4)cccc3C(F)(F)F)CC2)c1 [Example 111]	100 to 1000 nM

Which IC50 is reported with ABHD6 (Mus musculus) for this entry: CCN(Cc1cccc(OC)c1)C(=O)n1cc(C#N)cn1 [Example 249] ?
> 1000 nM

Would you kindly repeat that for Cc1cc(-c2ccccc2)ccc1CN1CCN(C(=O)n2cc(Cl)cn2)CC1 [Example 137] ?
100 to 1000 nM

Would you kindly repeat that for CCN(Cc1cccc(OC)c1)C(=O)n1cc(C(F)(F)F)cn1 [Example 250] ?
> 1000 nM

Would you kindly repeat that for O=C(N1CCN(Cc2cccnc2)CC1)n1cc(-c2ccccc2)cn1 [Example 60] ?
100 to 1000 nM

Would you kindly repeat that for O=C(N1CCN(Cc2c(N3CCCC3)cccc2C(F)(F)F)CC1)n1cc(C(F)(F)F)cn1 [Example 110] ?
< 100 nM

Would you kindly repeat that for CCN(Cc1ccc(OC)cc1)C(=O)n1cc(Cl)cn1 [Example 129] ?
> 1000 nM

Would you kindly repeat that for O=C(N1CCN(Cc2cccc(Cl)c2)CC1)n1cc(C(F)(F)F)cn1 [Example 268] ?
< 100 nM

Would you kindly repeat that for N#Cc1cnn(C(=O)N2CCCN(Cc3ccccc3)CC2)c1 [Example 179] ?
> 1000 nM

----------
Target: ABHD6 (Mus musculus, UniProt Q8R2Y0)
Construct: Proteomes (mouse brain membrane fraction or cell lysates); from tissue; host or cells: mouse brain membrane fraction (or cell lysates, not specified)
Assay: In vitro competitive activity-based protein profiling (gel-based, FP-Rh or HT-01 probe)
Format: biochemical
Conditions: mouse brain membrane fraction or cell lysates, 30 min preincubation at 37° C.; read-out: Mouse (IC50 value, nM) ABHD6
Below, each of the molecules is paired with its reported IC50 value.

Study these solved cases before continuing.
MOL_SMILES	READOUT_LABEL	RESULT
NC(=O)c1cnn(C(=O)N2CCN(Cc3ccc(Cl)cc3)CC2)c1	IC50	< 100 nM
COc1ccccc1N1CCN(C(=O)n2cc(C(F)(F)F)cn2)CC1	IC50	< 100 nM
O=C(N1CCN(C(c2ccc(Cl)cc2)c2ccc(Cl)cc2)CC1)n1cccn1	IC50	> 1000 nM
CCN(Cc1ccc(C)cc1)C(=O)n1cc(Cl)cn1	IC50	> 1000 nM

Requested read-out: IC50. Entry: COc1cccc(CN2CCN(C(=O)n3cc(C(F)(F)F)cn3)CC2)c1
< 100 nM

----------
Biological target: ABHD6 (Mus musculus)
Construct: Proteomes (mouse brain membrane fraction or cell lysates); from tissue; host or cells: mouse brain membrane fraction (or cell lysates, not specified)
Test: In vitro competitive activity-based protein profiling (gel-based, FP-Rh or HT-01 probe)
Assay type: biochemical
Conditions: 10 μM inhibitor; read-out: % Inhibition at 10 μM, C = ABHD6
Below, each of the compounds is paired with its reported inhibition at 10 µM value.

Study these solved cases before continuing.
COMPOUND	inhibition at 10 µM
O=C(N1CCN(Cc2ccc3ccccc3c2)CC1)n1cc(Br)cn1 [Example 13]	> 75%
Cc1cnn(C(=O)N2CCCN(C(=O)c3ccccc3)CC2)c1 [Example 169]	25 to 75%
Cc1ccc(-c2cnn(C(=O)N3CCCC3)c2)cc1 [Example 104]	> 75%
O=C(N1CCN(Cc2ccccc2)CC1)n1cc(Cl)cn1 [Example 186]	> 75%

Requested read-out: inhibition at 10 µM. Entry: O=C(N1CCN(c2ccccc2N2CCOCC2)CC1)n1cc(C(F)(F)F)cn1 [Example 236]
> 75%

Would you kindly repeat that for O=C(N1CCN(Cc2ccc(C(F)(F)F)cc2N2CCCC2)CC1)n1cc(-c2ccccc2C(F)(F)F)cn1 [Example 115] ?
25 to 75%

Would you kindly repeat that for Cc1cnn(C(=O)N(C)CCN(C)C(=O)c2ccccc2)c1 [Example 172] ?
< 25%

----------
Molecular target: MAGL (Mus musculus)
Construct: Proteomes (mouse brain membrane fraction or cell lysates); from tissue; host or cells: mouse brain membrane fraction (or cell lysates, not specified)
Sequence (O35678 whole entry): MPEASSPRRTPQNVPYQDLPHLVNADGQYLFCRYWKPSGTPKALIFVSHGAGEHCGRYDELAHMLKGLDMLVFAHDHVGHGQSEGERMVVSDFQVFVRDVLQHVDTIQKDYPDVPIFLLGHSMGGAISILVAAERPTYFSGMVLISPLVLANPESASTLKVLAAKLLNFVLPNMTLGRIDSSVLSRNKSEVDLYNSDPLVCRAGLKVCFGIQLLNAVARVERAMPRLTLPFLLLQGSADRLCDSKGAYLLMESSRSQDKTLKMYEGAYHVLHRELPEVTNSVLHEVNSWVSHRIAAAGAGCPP
Experiment: In vitro competitive activity-based protein profiling (gel-based, FP-Rh or HT-01 probe)
Type: biochemical
Details: 1 μM inhibitor
READOUT_LABEL: inhibition at 1 µM

Study these solved cases before continuing.
MOLECULE	READOUT_LABEL	RESULT
O=C(N1CCN(Cc2c(N3CCCC3)cccc2C(F)(F)F)CC1)n1cc(F)cn1 [Example 113]	inhibition at 1 µM	> 75%
O=C(N1CCCN(Cc2ccccc2)CC1)n1cc(Cl)cn1 [Example 191]	inhibition at 1 µM	< 25%
N#Cc1cnn(C(=O)N2CCCN(Cc3ccccc3)CC2)c1 [Example 179]	inhibition at 1 µM	> 75%
O=C(c1cnn(C(=O)N2CCN(Cc3ccc4c(c3)OCO4)CC2)c1)N1CCOCC1 [Example 51]	inhibition at 1 µM	< 25%

Requested read-out: inhibition at 1 µM. Entry: O=C(N1CCN(c2ccccc2Cl)CC1)n1cc(C(F)(F)F)cn1 [Example 227]
> 75%

Would you kindly repeat that for CCN(Cc1cccc(Cl)c1)C(=O)n1cc(C(F)(F)F)cn1 [Example 244] ?
25 to 75%

Would you kindly repeat that for N#Cc1cnn(C(=O)N2CCCC2)c1 [Example 203] ?
< 25%

Would you kindly repeat that for CC(=O)N(C)CCN(C)C(=O)n1cc(C(F)(F)F)cn1 [Example 159] ?
< 25%

Would you kindly repeat that for CN(CCN(C)C(=O)n1cc(Cl)cn1)C(=O)c1ccccc1 [Example 194] ?
< 25%

----------
Below, each of the compounds is paired with its reported inhibition at 10 µM value.
Biological target: PLA2G7 (Mus musculus, UniProt Q60963)
Construct: Proteomes (mouse brain membrane fraction or cell lysates); from tissue; host or cells: mouse brain membrane fraction (or cell lysates, not specified)
Sequence (Q60963 22-440): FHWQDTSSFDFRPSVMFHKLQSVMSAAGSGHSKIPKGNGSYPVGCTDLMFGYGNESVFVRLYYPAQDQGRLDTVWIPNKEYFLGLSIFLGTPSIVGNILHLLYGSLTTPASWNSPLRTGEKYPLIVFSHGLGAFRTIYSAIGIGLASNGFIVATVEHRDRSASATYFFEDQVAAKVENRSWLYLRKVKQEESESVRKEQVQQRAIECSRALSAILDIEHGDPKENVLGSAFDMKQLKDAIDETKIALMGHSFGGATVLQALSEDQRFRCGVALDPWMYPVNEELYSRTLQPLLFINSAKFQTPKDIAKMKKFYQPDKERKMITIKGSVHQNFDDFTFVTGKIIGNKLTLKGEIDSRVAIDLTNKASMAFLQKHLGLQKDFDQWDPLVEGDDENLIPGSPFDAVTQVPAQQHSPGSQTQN
Assay: In vitro competitive activity-based protein profiling (gel-based, FP-Rh or HT-01 probe)
Type: biochemical
Conditions: 10 μM inhibitor; read-out: % Inhibition at 10 μM, D = PLA2G7

MOL_SMILES	READOUT_LABEL	RESULT
Cc1cc(-c2ccccc2)ccc1CN1CCN(C(=O)n2cc(-c3ccccc3)cn2)CC1	inhibition at 10 µM	> 75%
O=C(c1cnn(C(=O)N2CCN(Cc3cncnc3)CC2)c1)N1CCCCC1	inhibition at 10 µM	> 75%
CN(CCN(C)S(C)(=O)=O)C(=O)n1cc(Cl)cn1	inhibition at 10 µM	< 25%
CN1CCN(C(=O)n2cc(Cl)cn2)CC1	inhibition at 10 µM	> 75%
O=C(NCCCc1ccccc1)n1cccn1	inhibition at 10 µM	< 25%
O=C(N1CCN(c2cccc(N3CCCC3)c2)CC1)n1cc(C(F)(F)F)cn1	inhibition at 10 µM	> 75%

// next entry
Requested read-out: inhibition at 10 µM. Entry: O=C(c1cnn(C(=O)N2CCN(Cc3nccs3)CC2)c1)N1CCC1
> 75%
